# Test system: COR-L23
# Assay name: relative viability (nuclei count vs DMSO), 5 days (fraction); higher = more cells survive
# Condition info: first compound 0.253 µM
Test readout: relative viability
// return just the number, without any unit appended

Solved cases below.
1) COc1nc(C)cnc1NS(=O)(=O)c1cccnc1-c1ccc(-c2nnco2)cc1 [Zibotentan] + Nc1nc2[nH]cc(CCc3ccc(C(=O)N[C@@H](CCC(=O)O)C(=O)O)cc3)c2c(=O)[nH]1 [Pemetrexed] (partner 0.2 µM) = 0.185
2) COc1nc(C)cnc1NS(=O)(=O)c1cccnc1-c1ccc(-c2nnco2)cc1 [Zibotentan] + CC1(C)CCC(c2ccc(Cl)cc2)=C(CN2CCN(c3ccc(C(=O)NS(=O)(=O)c4ccc(N[C@H](CCN5CCOCC5)CSc5ccccc5)c(S(=O)(=O)C(F)(F)F)c4)cc3)CC2)C1 [Navitoclax] (partner 0.5 µM) = 1.08
3) COc1nc(C)cnc1NS(=O)(=O)c1cccnc1-c1ccc(-c2nnco2)cc1 [Zibotentan] + CS(=O)(=O)CCNCc1ccc(-c2ccc3ncnc(Nc4ccc(OCc5cccc(F)c5)c(Cl)c4)c3c2)o1 [Lapatinib] (partner 2 µM) = 0.849

Please turn your attention to the following entry.
Query: relative viability; subject: COc1nc(C)cnc1NS(=O)(=O)c1cccnc1-c1ccc(-c2nnco2)cc1 [Zibotentan] + C[C@@H](Oc1cc(-c2cnn(C3CCNCC3)c2)cnc1N)c1c(Cl)ccc(F)c1Cl [Crizotinib] (partner 1 µM)
0.65

----------
# System: LXF-289
# Assay name: relative viability (nuclei count vs DMSO), 5 days (fraction); higher = more cells survive
# Condition info: first compound 20 µM
Test readout: relative viability
// return just the number, without any unit appended

1. COCC1(CO)C(=O)C2CCN1CC2 (stereo not drawn) [PRIMA-1MET] + COc1cc2c(Oc3ccc(NC(=O)C4(C(=O)Nc5ccc(F)cc5)CC4)cc3F)ccnc2cc1OCCCN1CCOCC1 [Foretinib] (partner 0.25 µM) = 0.949
2. COCC1(CO)C(=O)C2CCN1CC2 (stereo not drawn) [PRIMA-1MET] + Nc1ncn([C@H]2C[C@H](O)[C@@H](CO)O2)c(=O)n1 [Decitabine] (partner 2 µM) = 0.372

Please turn your attention to the following entry.
Kindly state the measured relative viability obtained for COCC1(CO)C(=O)C2CCN1CC2 (stereo not drawn) [PRIMA-1MET] + Cc1cc(Nc2cc(N3CCN(C)CC3)nc(Sc3ccc(NC(=O)C4CC4)cc3)n2)n[nH]1 [Tozasertib] (partner 0.1 µM) with LXF-289.
0.192

----------
# Tested on: EBC-1
# Assay name: relative viability (nuclei count vs DMSO), 5 days (fraction); higher = more cells survive
# Condition info: first compound 0.3162 µM
Test readout: relative viability
// return just the number, without any unit appended

Solved cases below.
1. CCN(CC)CCCCNc1ncc2cc(-c3cc(OC)cc(OC)c3)c(NC(=O)NC(C)(C)C)nc2n1 + C[C@@H](Oc1cc(-c2cnn(C3CCNCC3)c2)cnc1N)c1c(Cl)ccc(F)c1Cl [Crizotinib] (partner 1 µM) = 0.213
2. CCN(CC)CCCCNc1ncc2cc(-c3cc(OC)cc(OC)c3)c(NC(=O)NC(C)(C)C)nc2n1 + C[C@]1(O)C[C@@H](c2nc(-c3ccc4ccc(-c5ccccc5)nc4c3)c3c(N)nccn32)C1 [Linsitinib] (partner 1 µM) = 1.06
3. O=c1cc(N2CCOCC2)oc2c(-c3cccc4c3sc3ccccc34)cccc12 + O=C(c1cc(Cc2n[nH]c(=O)c3ccccc23)ccc1F)N1CCN(C(=O)C2CC2)CC1 [Olaparib] (partner 8 µM) = 0.788
4. O=c1cc(N2CCOCC2)oc2c(-c3cccc4c3sc3ccccc34)cccc12 + C[C@]1(O)C[C@@H](c2nc(-c3ccc4ccc(-c5ccccc5)nc4c3)c3c(N)nccn32)C1 [Linsitinib] (partner 1 µM) = 1.06

Query: relative viability; subject: CCN(CC)CCCCNc1ncc2cc(-c3cc(OC)cc(OC)c3)c(NC(=O)NC(C)(C)C)nc2n1 + COc1cc2c(Oc3ccc(NC(=O)C4(C(=O)Nc5ccc(F)cc5)CC4)cc3F)ccnc2cc1OCCCN1CCOCC1 [Foretinib] (partner 0.25 µM)
0.104

----------
# System: NCI-H1651
# Assay name: relative viability (nuclei count vs DMSO), 5 days (fraction); higher = more cells survive
# Condition info: first compound 0.01 µM
Test readout: relative viability
// return just the number, without any unit appended

Solved cases below.
1. CCN(CC)CCCCNc1ncc2cc(-c3cc(OC)cc(OC)c3)c(NC(=O)NC(C)(C)C)nc2n1 + CS(=O)(=O)CCNCc1ccc(-c2ccc3ncnc(Nc4ccc(OCc5cccc(F)c5)c(Cl)c4)c3c2)o1 [Lapatinib] (partner 2 µM) = 0.896
2. CCN(CC)CCCCNc1ncc2cc(-c3cc(OC)cc(OC)c3)c(NC(=O)NC(C)(C)C)nc2n1 + COc1cccc2cc(-c3nc([C@H]4CC[C@H](C(=O)O)CC4)n4ncnc(N)c34)[nH]c12 [OSI-027] (partner 0.5 µM) = 0.7
3. O=c1cc(N2CCOCC2)oc2c(-c3cccc4c3sc3ccccc34)cccc12 + Nc1nc2[nH]cc(CCc3ccc(C(=O)N[C@@H](CCC(=O)O)C(=O)O)cc3)c2c(=O)[nH]1 [Pemetrexed] (partner 0.2 µM) = 0.547

Query: relative viability; subject: CCN(CC)CCCCNc1ncc2cc(-c3cc(OC)cc(OC)c3)c(NC(=O)NC(C)(C)C)nc2n1 + CS(=O)(=O)N1CCN(Cc2cc3nc(-c4cccc5[nH]ncc45)nc(N4CCOCC4)c3s2)CC1 [Pictilisib] (partner 1 µM)
0.693

----------
relative viability values by entry
# System: 201T
# Assay name: relative viability (nuclei count vs DMSO), 5 days (fraction); higher = more cells survive
# Condition info: first compound 0.01 µM
// return just the number, without any unit appended

1) O=c1cc(N2CCOCC2)oc2c(-c3cccc4c3sc3ccccc34)cccc12 + COc1cc2c(Oc3ccc(NC(=O)C4(C(=O)Nc5ccc(F)cc5)CC4)cc3F)ccnc2cc1OCCCN1CCOCC1 [Foretinib] (partner 0.25 µM) = 1.1

Query: relative viability; subject: CCN(CC)CCCCNc1ncc2cc(-c3cc(OC)cc(OC)c3)c(NC(=O)NC(C)(C)C)nc2n1 + Cc1nc(NC(=O)N2CCC[C@H]2C(N)=O)sc1-c1ccnc(C(C)(C)C(F)(F)F)c1 [Alpelisib] (partner 2 µM)
1.05

----------
# Test system: NCI-H2170
# Assay name: relative viability (nuclei count vs DMSO), 5 days (fraction); higher = more cells survive
# Condition info: first compound 0.3162 µM
relative viability values by entry
// return just the number, without any unit appended

1. O=c1cc(N2CCOCC2)oc2c(-c3cccc4c3sc3ccccc34)cccc12 + CS(=O)(=O)CCNCc1ccc(-c2ccc3ncnc(Nc4ccc(OCc5cccc(F)c5)c(Cl)c4)c3c2)o1 [Lapatinib] (partner 2 µM) = 0.285
2. O=c1cc(N2CCOCC2)oc2c(-c3cccc4c3sc3ccccc34)cccc12 + O=C(c1cc(Cc2n[nH]c(=O)c3ccccc23)ccc1F)N1CCN(C(=O)C2CC2)CC1 [Olaparib] (partner 8 µM) = 0.53
3. O=c1cc(N2CCOCC2)oc2c(-c3cccc4c3sc3ccccc34)cccc12 + COc1cccc2cc(-c3nc([C@H]4CC[C@H](C(=O)O)CC4)n4ncnc(N)c34)[nH]c12 [OSI-027] (partner 0.5 µM) = 0.716
4. O=c1cc(N2CCOCC2)oc2c(-c3cccc4c3sc3ccccc34)cccc12 + CS(=O)(=O)N1CCN(Cc2cc3nc(-c4cccc5[nH]ncc45)nc(N4CCOCC4)c3s2)CC1 [Pictilisib] (partner 1 µM) = 0.375
5. CCN(CC)CCCCNc1ncc2cc(-c3cc(OC)cc(OC)c3)c(NC(=O)NC(C)(C)C)nc2n1 + O=C(c1cc(Cc2n[nH]c(=O)c3ccccc23)ccc1F)N1CCN(C(=O)C2CC2)CC1 [Olaparib] (partner 8 µM) = 0.676
6. O=c1cc(N2CCOCC2)oc2c(-c3cccc4c3sc3ccccc34)cccc12 + C[C@@H](Oc1cc(-c2cnn(C3CCNCC3)c2)cnc1N)c1c(Cl)ccc(F)c1Cl [Crizotinib] (partner 1 µM) = 1.12

Query: relative viability; subject: CCN(CC)CCCCNc1ncc2cc(-c3cc(OC)cc(OC)c3)c(NC(=O)NC(C)(C)C)nc2n1 + Cc1nc(NC(=O)N2CCC[C@H]2C(N)=O)sc1-c1ccnc(C(C)(C)C(F)(F)F)c1 [Alpelisib] (partner 2 µM)
0.894

Moving on to the next compound: O=c1cc(N2CCOCC2)oc2c(-c3cccc4c3sc3ccccc34)cccc12 + N=C(N)NC(=N)NCCc1ccccc1 [Phenformin] (partner 250 µM)
0.384

Moving on to the next compound: O=c1cc(N2CCOCC2)oc2c(-c3cccc4c3sc3ccccc34)cccc12 + CC(=O)c1c(C)c2cnc(Nc3ccc(N4CCNCC4)cn3)nc2n(C2CCCC2)c1=O [Palbociclib] (partner 0.5 µM)
0.405
